Biological target: human DGKα (Homo sapiens, UniProt P23743)
Construct: TVMV protease cleavage site (C); Hexa-His (C); made in house; host or cells: Sf9 insect cells (baculovirus, Bac-to-Bac)
Sequence (P23743 with tags, fused parts or gaps): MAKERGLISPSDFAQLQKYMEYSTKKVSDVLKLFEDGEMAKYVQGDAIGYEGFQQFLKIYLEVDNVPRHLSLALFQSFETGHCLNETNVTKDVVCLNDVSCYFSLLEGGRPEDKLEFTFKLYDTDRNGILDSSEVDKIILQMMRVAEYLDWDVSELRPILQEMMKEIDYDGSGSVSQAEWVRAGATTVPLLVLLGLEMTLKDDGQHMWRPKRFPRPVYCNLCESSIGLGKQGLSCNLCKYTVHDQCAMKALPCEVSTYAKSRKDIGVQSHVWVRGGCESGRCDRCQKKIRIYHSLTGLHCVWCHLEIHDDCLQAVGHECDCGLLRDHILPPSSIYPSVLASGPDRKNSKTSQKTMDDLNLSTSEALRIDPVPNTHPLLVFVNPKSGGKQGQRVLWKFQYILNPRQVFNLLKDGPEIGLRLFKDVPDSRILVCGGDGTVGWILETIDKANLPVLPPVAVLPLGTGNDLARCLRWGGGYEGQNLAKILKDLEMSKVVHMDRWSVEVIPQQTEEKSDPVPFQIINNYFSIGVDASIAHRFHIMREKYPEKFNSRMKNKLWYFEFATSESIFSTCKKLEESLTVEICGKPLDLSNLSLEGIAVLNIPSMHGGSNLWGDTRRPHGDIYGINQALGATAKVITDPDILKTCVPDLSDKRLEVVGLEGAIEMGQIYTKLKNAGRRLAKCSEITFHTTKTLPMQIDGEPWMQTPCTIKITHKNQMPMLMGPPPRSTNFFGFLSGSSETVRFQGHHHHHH
Assay: DGKα LIPGLO assay (extruded liposome substrate), in vitro DGK inhibition
Assay type: biochemical
Settings: liposome (LIPGLO) assay; read-out: DGKa LIPGLO IC50
pIC50: −log10 of the molar value.
Measurement Kind: pIC50

[P] CC[C@@H]1CN(c2cc(=O)n(C)c3ccc(C#N)nc23)[C@@H](C)CN1Cc1ccc(F)cc1
[Q] CC[C@H]1CN(C(C)c2ccc(F)cc2)[C@H](C)CN1c1cc(=O)n(C)c2ccc(C#N)nc12 (single isomer, unassigned) [Example 1136]
[R] CC(C)Oc1ncccc1C(c1ccc(F)cc1)N1C[C@H](C)N(c2cc(=O)n(C)c3ccc(C#N)nc23)C[C@H]1C (single isomer, unassigned) [Example 208]
[S] CC(C)Oc1cc(F)ccc1CN1C[C@H](C)N(c2cc(=O)n(C)c3ccc(C#N)nc23)C[C@H]1C
Qu. Lab note: rank above entries, pIC50 ascending. Write the labels out in the order the request specifies.
Ans. R, Q, S, P

Sourced from patent US10669272B2
